src = ChEMBL document CHEMBL1201862

Test system: M14
Experiment: NCI tumour cell line growth inhibition, 48 h
Counter-ions that a name gives are not always drawn. Activity calls are given as the source filed them. Cut-off read from the data, not from the text of the source: active = GI50 up to about 1.1 µM and inactive = higher.
Labels: True = active, False = inactive

[
  {
    "Compound": "Cc1ccc(C)c(NC(=O)CCc2nnc(S)[nH]2)c1",
    "Class Assignment": "False"
  },
  {
    "Compound": "Nc1nc(-c2ccccc2)c(-c2ccccc2)c(-c2nc(N)nc(-c3ccccc3)c2-c2ccccc2)n1",
    "Class Assignment": "False"
  },
  {
    "Compound": "CN(C)CCC(CCN(C)C)=NOC(=O)c1ccccc1",
    "Class Assignment": "False"
  },
  {
    "Compound": "COc1cc(C2SCC(=O)N2c2ccccn2)cc(OC)c1OC (stereo not drawn)",
    "Class Assignment": "False"
  },
  {
    "Compound": "CCOC(=O)C1=C(C(=O)OCC)C2c3ccccc3C=CN2C(C(=O)OCC)=C(SC)S1 (stereo not drawn)",
    "Class Assignment": "False"
  },
  {
    "Compound": "CCCCCCCCCCCC[N+](CCCCCCCCCCCC)=C1SCCS1",
    "Class Assignment": "False"
  },
  {
    "Compound": "COc1ccc2c(cnc3c4cc(OC)c(OC)cc4ccc23)c1",
    "Class Assignment": "False"
  },
  {
    "Compound": "C=CCn1c(=O)c(C)cn(COCCO)c1=O",
    "Class Assignment": "False"
  },
  {
    "Compound": "CCOC(=O)C(NC(=O)Nc1ccccc1)(Nc1cccc(Cl)c1)C(F)(F)F (stereo not drawn)",
    "Class Assignment": "False"
  },
  {
    "Compound": "CC(C)NC(=O)OCc1c(COC(=O)NC(C)C)c(-c2cc[n+](COC(=O)C(C)C)cc2)n2c1CCC2",
    "Class Assignment": "False"
  },
  {
    "Compound": "NC(=S)N/N=C1\\c2ccccc2CCC1CCC1(O)CCc2ccccc2C1=O (stereo not drawn)",
    "Class Assignment": "False"
  },
  {
    "Compound": "CC(=O)OC1COC(N2CCc3cc([N+](=O)[O-])ccc32)C(OC(C)=O)C1OC(C)=O (stereo not drawn)",
    "Class Assignment": "False"
  },
  {
    "Compound": "C[C@]12CCC[C@H](OC=O)C1(O)C[C@H](C(=O)O)CC2 (stereo partly drawn)",
    "Class Assignment": "False"
  },
  {
    "Compound": "COC(=O)c1ccc(C(=O)OC)c2nc3cc(C)ccc3nc12",
    "Class Assignment": "False"
  },
  {
    "Compound": "Cc1cc(NCCCCCCCNc2cc(C)nc3cc(N)ccc23)c2ccc(N)cc2n1",
    "Class Assignment": "False"
  },
  {
    "Compound": "CCC(C)NC(=S)N/N=C(\\C)c1nc2cccnc2[nH]1 (stereo not drawn)",
    "Class Assignment": "False"
  },
  {
    "Compound": "Cc1cccc(-c2cc(O)c3c(C)cc(C)nc3n2)c1",
    "Class Assignment": "False"
  },
  {
    "Compound": "COc1cc(C2C(C(=O)O)=C(CO)Oc3cc4c(cc32)OCO4)cc(OC)c1OC (stereo not drawn)",
    "Class Assignment": "False"
  },
  {
    "Compound": "COc1cc(C2c3cc4c(cc3[C@@H](NCCN3CCOCC3)C3COC(=O)[C@H]23)OCO4)cc(OC)c1O (stereo partly drawn)",
    "Class Assignment": "False"
  },
  {
    "Compound": "N#CC(C(=O)CCC(=O)Nc1cccc(Cl)c1)c1ccccc1 (stereo not drawn)",
    "Class Assignment": "False"
  },
  {
    "Compound": "C[S+](C)([O-])=Nn1c(=O)n2n(c1=O)[C@H]1CC[C@@H]2C1",
    "Class Assignment": "False"
  },
  {
    "Compound": "NC(=S)NN=Cc1ccccc1OCc1cccc(COc2ccccc2C=NNC(N)=S)n1",
    "Class Assignment": "False"
  },
  {
    "Compound": "OCC(CN1CCCCC1)(CN1CCCCC1)CN1CCCCC1",
    "Class Assignment": "False"
  },
  {
    "Compound": "CC1CC(c2ccccc2)=Nc2ccccc2S1(=O)=O (stereo not drawn)",
    "Class Assignment": "False"
  },
  {
    "Compound": "CSc1nc(-c2ccccc2)nc(N2CCOCC2)[s+]1",
    "Class Assignment": "False"
  },
  {
    "Compound": "CC(C)=CCC[C@@H](C)c1c2ncc[nH]c-2c(C)c(=O)c1O",
    "Class Assignment": "False"
  },
  {
    "Compound": "CC(C)c1ccc(/C=C2\\N=C(c3ccc([N+](=O)[O-])cc3)OC2=O)cc1",
    "Class Assignment": "False"
  },
  {
    "Compound": "O=CN/C=C/c1cccc(O)c1",
    "Class Assignment": "False"
  },
  {
    "Compound": "CC(=O)N1CC[N+](C)(CCCCN2c3ccccc3Sc3cc(N=[N+]=[N-])ccc32)CC1",
    "Class Assignment": "False"
  },
  {
    "Compound": "NCCCNCCSSCc1ccccc1CSSCCNCCCN",
    "Class Assignment": "False"
  },
  {
    "Compound": "NC(=S)N1N=C2c3ccccc3CC[C@H]2[C@@H]1c1ccc(Cl)cc1",
    "Class Assignment": "False"
  },
  {
    "Compound": "O=C(O)c1ccccc1/C=N/N=C1c2ccccc2-c2ccccc21",
    "Class Assignment": "False"
  },
  {
    "Compound": "C=CCN(N=O)C(=O)NCCCCC(NC(C)=O)C(=O)NCc1ccccc1 (stereo not drawn)",
    "Class Assignment": "False"
  },
  {
    "Compound": "CN(C)CCNC(=O)c1ccccc1Nc1c(Cl)cccc1Cl",
    "Class Assignment": "False"
  },
  {
    "Compound": "COC1=C(Br)[C@H](O)[C@@]2(C=C1Br)CC(C(=O)NCCCCCNC(=N)N)=NO2",
    "Class Assignment": "False"
  },
  {
    "Compound": "O=C(O)CCCCC1CCSS1 (stereo not drawn)",
    "Class Assignment": "False"
  },
  {
    "Compound": "COc1ccc(OC)c2sc(N3C(=O)/C(=C/c4ccccc4S)N=C3c3ccccc3)nc12",
    "Class Assignment": "False"
  },
  {
    "Compound": "OC(C1CCCCCCCCCC1)C(O)C1CCCCCCCCCC1 (stereo not drawn)",
    "Class Assignment": "False"
  },
  {
    "Compound": "CCOC(=O)c1nc[nH]c1/N=N/N(C)N",
    "Class Assignment": "False"
  },
  {
    "Compound": "NCCCNCCSSCCCCS(=O)O",
    "Class Assignment": "False"
  },
  {
    "Compound": "N/N=C1\\C(=O)N(c2ccc(Cl)c(Cl)c2)C(=O)C1C(=O)Nc1ccc(Cl)c(Cl)c1 (stereo not drawn)",
    "Class Assignment": "False"
  },
  {
    "Compound": "COc1ccc(/C=C2/C(=O)N(C(=O)c3ccccc3O)N=C2C)cc1OC",
    "Class Assignment": "True"
  },
  {
    "Compound": "CCN(CC)CCNc1ccc(C)c2sc3ccccc3c(=O)c12 [LUCANTHONE HYDROCHLORIDE]",
    "Class Assignment": "False"
  }
]
